Please respond with reported IC50 for every item in the list.
target_desc: XIAP-BIR2 (Homo sapiens (Human), UniProt P98170)
Sequence (P98170 124-240): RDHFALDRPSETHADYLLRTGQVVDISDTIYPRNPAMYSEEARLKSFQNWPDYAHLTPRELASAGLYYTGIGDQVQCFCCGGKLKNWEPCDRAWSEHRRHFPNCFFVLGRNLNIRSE
experimental_protocol: BIR binding assay (FRET competition), XIAP BIR2

Look up IC50 of C[C@@H]1CN(CC(=O)N2CC(C)(C)c3[nH]c(=O)c(Cc4ccc(F)cc4)cc32)[C@@H](CN2CCO[C@H](C(=O)N3CCN(C(=O)[C@@H]4CN(C[C@H]5CN[C@H](C)CN5CC(=O)N5CC(C)(C)c6[nH]c(=O)c(Cc7ccc(F)cc7)cc65)CCO4)CC3)C2)CN1 and report it.
10 to 51.3 µM

Specify reported IC50 for the compound shown: C[C@@H]1CN(CC(=O)N2CC(C)(C)c3ncc(Cc4cccnc4)cc32)[C@@H](CN2CCO[C@H](COc3cccc(OC[C@@H]4CN(C[C@H]5CN[C@H](C)CN5CC(=O)N5CC(C)(C)c6ncc(Cc7cccnc7)cc65)CCO4)c3)C2)CN1
10 to 51.3 µM

Answer with the recorded IC50 of C[C@@H]1CN(CC(=O)N2CC(C)(C)c3[nH]c(=O)c(Cc4ccc(F)cc4)cc32)[C@@H](CN2CCO[C@H](COc3ccc(Oc4cccc(Oc5ccc(OC[C@@H]6CN(C[C@H]7CN[C@H](C)CN7CC(=O)N7CC(C)(C)c8[nH]c(=O)c(Cc9ccc(F)cc9)cc87)CCO6)cc5)c4)cc3)C2)CN1 only.
10 to 51.3 µM

---

target_desc: XIAP-BIR3 (Homo sapiens (Human), UniProt P98170)
Sequence (P98170 241-356): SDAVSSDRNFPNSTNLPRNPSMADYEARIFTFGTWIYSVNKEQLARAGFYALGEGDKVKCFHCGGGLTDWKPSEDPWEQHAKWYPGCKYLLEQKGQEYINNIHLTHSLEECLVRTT
experimental_protocol: BIR binding assay (FRET competition), XIAP BIR3
pIC50: −log10 of the molar value.
For each entry below, report its pIC50 value.

Return the recorded pIC50 value; entry: C[C@@H]1CN(CC(=O)N2CC(C)(C)c3[nH]c(=O)c(Cc4ccc(F)cc4)cc32)[C@@H](CN2CCC[C@H](NC(=O)Cc3ccc(CC(=O)N[C@H]4CCCN(C[C@H]5CN[C@H](C)CN5CC(=O)N5CC(C)(C)c6[nH]c(=O)c(Cc7ccc(F)cc7)cc65)C4)cc3)C2)CN1 [Example 42]
6.30 to 7.50

Fill in pIC50 for record C[C@@H]1CN(CC(=O)N2CC(C)(C)c3[nH]c(=O)c(Cc4ccc(F)cc4)cc32)[C@@H](CN2CCN(C(=O)COCCOCCOCC(=O)N3CCN(C[C@H]4CN[C@H](C)CN4CC(=O)N4CC(C)(C)c5[nH]c(=O)c(Cc6ccc(F)cc6)cc54)[C@H](C)C3)C[C@H]2C)CN1 (stereo in doubt) [Example 6]
8.10 to 8.86

---

So I've got a bunch of compounds here, and I need their IC50 values.
target_desc: XIAP-BIR3 (Homo sapiens (Human), UniProt P98170)
experimental_protocol: BIR binding assay (FRET competition), XIAP BIR3

Please look at this compound and report its IC50: C[C@@H]1CN(CC(=O)N2CC(C)(C)c3[nH]c(=O)c(Cc4ccc(F)cc4)cc32)[C@@H](CN2CCO[C@H](C(=O)NCCCCCCCCNC(=O)[C@@H]3CN(C[C@H]4CN[C@H](C)CN4CC(=O)N4CC(C)(C)c5[nH]c(=O)c(Cc6ccc(F)cc6)cc54)CCO3)C2)CN1
7.94 to 15.8 nM

Give the reported value of IC50 for this record: C[C@@H]1CN(CC(=O)N2CC(C)(C)c3ncc(N(C)c4ccc(F)cc4)cc32)[C@@H](CN2CCO[C@H](COc3cccc(OC[C@@H]4CN(C[C@H]5CN[C@H](C)CN5CC(=O)N5CC(C)(C)c6ncc(N(C)c7ccc(F)cc7)cc65)CCO4)c3)C2)CN1
31.6 to 501 nM

Look up IC50 of Cc1cc(OC[C@@H]2CN(C[C@H]3CN[C@H](C)CN3CC(=O)N3CC(C)(C)c4[nH]c(=O)c(Cc5ccc(F)cc5)cc43)CCO2)cc(OC[C@@H]2CN(C[C@H]3CN[C@H](C)CN3CC(=O)N3CC(C)(C)c4[nH]c(=O)c(Cc5ccc(F)cc5)cc43)CCO2)c1 and report it.
15.8 to 31.6 nM

// fetch IC50 given entry C[C@@H]1CN(CC(=O)N2CC(C)(C)c3[nH]c(=O)c(Cc4ccc(F)cc4)cc32)[C@@H](CN2CCC(CN(C)C(=O)c3cccc(C(=O)N(C)CC4CCN(C[C@H]5CN[C@H](C)CN5CC(=O)N5CC(C)(C)c6[nH]c(=O)c(Cc7ccc(F)cc7)cc65)CC4)c3)CC2)CN1
7.94 to 15.8 nM

---

target_desc: cIAP1-BIR3 (Homo sapiens (Human))
Sequence (Q13490 253-363): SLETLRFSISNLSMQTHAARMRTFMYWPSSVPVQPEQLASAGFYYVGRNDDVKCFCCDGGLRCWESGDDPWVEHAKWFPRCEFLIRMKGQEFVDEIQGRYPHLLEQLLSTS
experimental_protocol: BIR binding assay (FRET competition), cIAP1 BIR3
pIC50: −log10 of the molar value.
Kindly state pIC50 for each of the entries shown.

Using known records, supply pIC50 for C[C@@H]1CN(CC(=O)N2CC(C)(C)c3c2cc(Cc2ccc(F)cc2)c(=O)n3C)[C@@H](CN2CCO[C@H](COCC#CC#CCOC[C@@H]3CN(C[C@H]4CN[C@H](C)CN4CC(=O)N4CC(C)(C)c5c4cc(Cc4ccc(F)cc4)c(=O)n5C)CCO3)C2)CN1
7.50 to 7.80

Look up and state reported pIC50 for C[C@@H]1CN(CC(=O)N2CC(C)(C)c3[nH]c(=O)c(Cc4ccc(F)c(F)c4F)cc32)[C@@H](CN2CCO[C@H](C(=O)NCc3ccc(CNC(=O)[C@@H]4CN(C[C@H]5CN[C@H](C)CN5CC(=O)N5CC(C)(C)c6[nH]c(=O)c(Cc7ccc(F)c(F)c7F)cc65)CCO4)cc3)C2)CN1
7.50 to 7.80

Identify measured pIC50 associated with C[C@@H]1CN(CC(=O)N2CC(C)(C)c3[nH]c(=O)c(Cc4ccc(F)cc4)cc32)[C@@H](CN2CCO[C@H](COc3ccc(F)c(OC[C@@H]4CN(C[C@H]5CN[C@H](C)CN5CC(=O)N5CC(C)(C)c6[nH]c(=O)c(Cc7ccc(F)cc7)cc65)CCO4)c3F)C2)CN1
8.10 to 8.86

Return pIC50 (reported value) for this compound: C[C@@H]1CN(CC(=O)N2CC(C)(C)c3[nH]c(=O)c(Cc4c(F)cc(F)cc4F)cc32)[C@@H](CN2CCO[C@H](COc3cccc(OC[C@@H]4CN(C[C@H]5CN[C@H](C)CN5CC(=O)N5CC(C)(C)c6[nH]c(=O)c(Cc7c(F)cc(F)cc7F)cc65)CCO4)c3)C2)CN1
7.50 to 7.80

---

target_desc: cIAP1-BIR2 (Homo sapiens (Human))
Sequence (Q13490 173-257): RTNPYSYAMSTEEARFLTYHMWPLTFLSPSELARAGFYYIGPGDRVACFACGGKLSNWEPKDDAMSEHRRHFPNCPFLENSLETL
experimental_protocol: BIR binding assay (FRET competition), cIAP1 BIR2
pIC50: −log10 of the molar value.
property_measured: pIC50

Please report the measured pIC50 for C[C@@H]1CN(CC(=O)N2CC(C)(C)c3[nH]c(=O)c(Cc4ccc(F)cc4)cc32)[C@@H](CN2CCO[C@H](COc3ccc(C(=O)C(=O)c4ccc(OC[C@@H]5CN(C[C@H]6CN[C@H](C)CN6CC(=O)N6CC(C)(C)c7[nH]c(=O)c(Cc8ccc(F)cc8)cc76)CCO5)cc4)cc3)C2)CN1 tested on cIAP1-BIR2 (Homo sapiens (Human)).
5.00 to 5.50

Report value only: pIC50, cIAP1-BIR2 (Homo sapiens (Human)), C[C@@H]1CN(CC(=O)N2CC(C)(C)c3[nH]c(=O)c(Cc4ccc(F)cc4)cc32)[C@@H](CN2CCC(CN(C)C(=O)Cc3ccc(C(=O)N(C)CC4CCN(C[C@H]5CN[C@H](C)CN5CC(=O)N5CC(C)(C)c6[nH]c(=O)c(Cc7ccc(F)cc7)cc65)CC4)cc3)CC2)CN1
5.50 to 6.00

System cIAP1-BIR2 (Homo sapiens (Human)). Read-out pIC50. Item C[C@@H]1CN(CC(=O)N2CC(C)(C)c3[nH]c(=O)c(Cc4ccc(F)cc4C#N)cc32)[C@@H](CN2CCO[C@H](C(=O)NCc3ccc(CNC(=O)[C@@H]4CN(C[C@H]5CN[C@H](C)CN5CC(=O)N5CC(C)(C)c6[nH]c(=O)c(Cc7ccc(F)cc7C#N)cc65)CCO4)cc3)C2)CN1 . Report value.
5.50 to 6.00

Please respond with reported pIC50 (system cIAP1-BIR2 (Homo sapiens (Human))) for C[C@@H]1CN(CC(=O)N2CC(C)(C)c3[nH]c(=O)c(Cc4ccc(F)cc4)cc32)[C@@H](CN2CCO[C@H](COc3cccc(OC[C@@H]4CN(C[C@H]5CN[C@H](C)CN5CC(=O)N5CC(C)(C)c6[nH]c(=O)c(Cc7ccc(F)cc7)cc65)CCO4)c3Cl)C2)CN1 .
5.50 to 6.00

---

target_desc: cIAP2-BIR3 (Homo sapiens (Human), UniProt Q13489)
Sequence (Q13489 238-349): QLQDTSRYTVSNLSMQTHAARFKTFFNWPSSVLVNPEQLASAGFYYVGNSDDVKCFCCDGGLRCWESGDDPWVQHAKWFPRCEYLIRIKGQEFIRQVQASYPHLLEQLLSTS
experimental_protocol: BIR binding assay (FRET competition), cIAP2 BIR3
So I've got a bunch of compounds here, and I need their IC50 values.

Hello, please tell me recorded IC50 for this one: C[C@@H]1CN(CC(=O)N2CC(C)(C)c3[nH]c(=O)c(Cc4ccc(Cl)cc4C#N)cc32)[C@@H](CN2CCO[C@H](C(=O)NCc3ccc(CNC(=O)[C@@H]4CN(C[C@H]5CN[C@H](C)CN5CC(=O)N5CC(C)(C)c6[nH]c(=O)c(Cc7ccc(Cl)cc7C#N)cc65)CCO4)cc3)C2)CN1
1.38 to 7.94 nM

Please report the measured IC50 for C[C@@H]1CN(CC(=O)N2CC(C)(C)c3[nH]c(=O)c(Cc4ccc(Br)cc4)cc32)[C@@H](CN2CCO[C@H](C(=O)NCc3ccc(CNC(=O)[C@@H]4CN(C[C@H]5CN[C@H](C)CN5CC(=O)N5CC(C)(C)c6[nH]c(=O)c(Cc7ccc(Br)cc7)cc65)CCO4)cc3)C2)CN1
1.38 to 7.94 nM

Please give measured IC50 of the following entry: C[C@@H]1CN(CC(=O)N2CC(C)(C)c3[nH]c(=O)c(Cc4ccc(F)cc4)cc32)[C@@H](CN2CCN(CCCCCCCCCCN3CCN(C[C@H]4CN[C@H](C)CN4CC(=O)N4CC(C)(C)c5[nH]c(=O)c(Cc6ccc(F)cc6)cc54)[C@H](C)C3)C[C@H]2C)CN1
1.38 to 7.94 nM

Please indicate IC50 recorded for C[C@@H]1CN(CC(=O)N2CC(C)(C)c3[nH]c(=O)c(Cc4ccc(F)cc4)cc32)[C@@H](CN2CCO[C@H](COc3ccc(C(=O)c4ccc(OC[C@@H]5CN(C[C@H]6CN[C@H](C)CN6CC(=O)N6CC(C)(C)c7[nH]c(=O)c(Cc8ccc(F)cc8)cc76)CCO5)cc4)cc3)C2)CN1
15.8 to 31.6 nM
